- Organism: Canis familiaris
- ASSAY_OVERVIEW: Percent reduction in Uncinaria eggs per gram, after oral treatment of 100 mg/dog dose of compound in a single treatment
- Type: functional, Canis lupus familiaris, Egg
The reader will find reported Reduction values listed item by item below.
Report only the number, with the unit % understood.

SAMPLE_SMILES: Cl/C(=N\Nc1ccc(Cl)c(Cl)c1)c1ccccc1
RESULT_UNITS: %
MEASUREMENT: 0
--
SAMPLE_SMILES: Cc1cc(/C(Cl)=N/Nc2ccccc2)ccc1[N+](=O)[O-]
RESULT_UNITS: %
MEASUREMENT: 0

Now for the molecule whose Reduction we want.
Task item: Using the record for "Cc1ccccc1/C(Cl)=N/Nc1c(Cl)cc(Cl)cc1Cl" , report its Reduction.
Reply: 20
